Experimental Protocol: chemical genetic growth profiling, strain panel (AID 1159580);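 also: tested at 20 µM; growth read once vehicle control cultures reached saturation at 30 °C; lower values mean less growth of the strain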
Stated Conditions: S. cerevisiae deletion strains, growth OD, locus YOR184W, strain ser1
The whole screen tested about 5,500 compounds, of which about 2,000 (36%) were called active. Inconclusive results (about 18%) are left out. Rule as the data show it: active = normalized growth mostly below about 0.91 (no sharp cut-off); inconclusive = no clear call, values can overlap the other calls; inactive = mostly above about 0.92. This is one part of the list. Where a SMILES comes first, the peptide text is derived from it.
// allowed return values: True for active, False for inactive

Molecule	Assigned Label
NC1(C(=O)O)CC1	False
NC1(C(=O)O)CCC1	False
CC12CCC3C(=CCc4cc(O)ccc43)C1CCC2=O (stereo not given)	True
O=C(O)CCCCCCCC(=O)O	False
CCCCCCCCCCCC(=O)OCC(COP(=O)(O)OCC(O)COP(=O)(O)OCC(COC(=O)CCCCCCCCCCC)OC(=O)CCCCCCCCCCC)OC(=O)CCCCCCCCCCC (stereo not given)	False
CC(=O)N[C@@H](CCC(=O)O)C(=O)O	False
CC(=O)N[C@@H](CC(=O)O)C(=O)N[C@@H](CCC(=O)O)C(=O)O (Ac-Asp-Glu-OH)	False
NCCCCC(=O)O	False
CCCNC(=O)NS(=O)(=O)c1ccc(Cl)cc1	False

Hi, sorry to bother you, what did the test record for CC(=O)OC1CC(OC(C)=O)C2(C)C(CC(OC(C)=O)C3(C)C2CCC2(C)C(c4ccoc4)OC(=O)C4OC423)C1(C)C (stereo not given) ?
False

Taken from PubChem BioAssay AID1159580.
